- test target: T1, mouse ICOS (full length, on cells) (mouse, UniProt Q9WVS0 21-200)
- T1 construct: also called CHO-mICOS; mouse ICOS+ CHO cells
- T1 sequence: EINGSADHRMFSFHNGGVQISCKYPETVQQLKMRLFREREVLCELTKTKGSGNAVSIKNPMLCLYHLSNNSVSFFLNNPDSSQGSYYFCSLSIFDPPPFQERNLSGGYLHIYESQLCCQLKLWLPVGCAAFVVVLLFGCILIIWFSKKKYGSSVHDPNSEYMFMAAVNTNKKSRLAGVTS
- assay name: flow cytometry on ICOS+ CHO cells
measure name: binding result

[[record]]
binder = "16G10 (antibody, V domains shown, Armenian hamster monoclonal tested as IgG; also called hamster anti-ICOS 16G10) VH: EVQLVESGGGLVKPGGSLKLSCAASGFTFSDYWMDWVRQAPGKGLEWVGNIDHDGNIINFAPSVKGRFTISRDNAKNTLYLQMNSVKSEDTATYYCARWGHYAFDSWGQGTLVTVSS VL: DIVMTQSPSSLAVSAGDKVTINCKSSQSLLSSGYNYLIWYQQKTGQAPKLLIFYASTRHTGVPDRFIGSGSGTDFTLTITSFQTEDLGDYYCQHHYSSPPTFGPGTKLEIK"
recorded_value = "binds"

[[record]]
binder = "37A10 (antibody, V domains shown, Armenian hamster monoclonal tested as IgG; also called hamster anti-ICOS 37A10) VH: EVQLVESGGGLVKPGGSLKLSCAASGFTFSDYWMDWVRQAPGKGLEWVGNIDEDGSITEYSPFVKGRFTISRDNVKNTLYLQMNSVKSEDTATYYCTRWGRFGFDSWGQGTLVTVSS VL: DIVMTQSPSSLAVSAGDRVTINCKSSQSLLSGSFNYLTWYQQKTGQAPKLLIFYASTRHTGVPDRFMGSGSGTDFTLTINSFQTEDLGDYYCHHHYNAPPTFGPGTKLELR"
recorded_value = "binds"

